target: T1, human GITR-Fc (human, UniProt Q9Y5U5 26-161)
T1 construct: Recombinant GITR-Fc; also called hGITR-Fc; hGITR; not shown: Fc part
T1 sequence (looked up): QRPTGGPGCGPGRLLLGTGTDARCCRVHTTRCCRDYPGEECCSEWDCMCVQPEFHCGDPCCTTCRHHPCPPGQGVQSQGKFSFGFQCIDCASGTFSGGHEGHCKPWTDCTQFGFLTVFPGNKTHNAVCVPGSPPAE
assayRemarks: direct titration ELISA on coated human GITR-Fc, IgG1 0.001-1 µg/ml, OD 450 nm
Protocol: To coat Greiner Bio-One High bind ELISA plates, target proteins were diluted to 1 μg/ml in carbonate buffer and added at 100 μl per well, at 4° C., o/n. Coated plates were washed 3× with PBS pH7.4, blocked with 1% BSA in PBS (380 μl/well) for 1 hr at RT, then washed 3× with PBS-Tween 20 (PBST). GITR antibodies (100 μl/well; diluted in PBST) were then added and then incubated 1 hr at RT. […] Reactions were stopped by adding 100 μl 2M H₂SO₄/well and OD was read on a plate reader at 450 nm. […]

binder	binding result
VH3/VL3 IgG1 (antibody, V domains shown, Human IgG1; also called VH3 family) VH: EVQLVESGGGLVQPGGSLRLSCAASGFSLSTSGMGVGWVRQAPGKGLEWLAHIWWDDDKYYVDSVKGRFTISRDNAKNSLYLQMNSLRAEDTAVYYCARTRRYFPFAYWGQGTLVTVSS VL: DIQMTQSPSSLSASVGDRVTITCRASQNVGTNVAWYQQKPGKAPKLLIYSASYRYSGVPSRFSGSGSGTDFTLTISSLQPEDFATYYCQQYNTDPLTFGGGTKVEIK	binds
VH3/VL1 IgG1 (antibody, V domains shown, Human IgG1; also called VH3 family) VH: EVQLVESGGGLVQPGGSLRLSCAASGFSLSTSGMGVGWVRQAPGKGLEWLAHIWWDDDKYYVDSVKGRFTISRDNAKNSLYLQMNSLRAEDTAVYYCARTRRYFPFAYWGQGTLVTVSS VL: EIVMTQSPATLSVSPGERATLSCKASQNVGTNVAWYQQKPGQAPRLLIYSASYRYSGIPARFSGSGSGTEFTLTISSLQSEDFAVYYCQQYNTDPLTFGGGTKVEIK	binds

All figures here come from patent US20190375846A1.
